The origin of these recorded values is patent US20220409629A1.

- Experiment description: Liver microsomal stability, dog
- Format: in vitro ADME
- Measurement conditions: pH 7.4; dog liver microsomes, 0.5 mg/mL protein, 1 μM compound, NADPH; >80% remaining at 45 min denoted >140; read-out: Liver Microsomal Stability: t1/2 (min); dog
Measurement kind: half-life at 1 µM (min)

>>> result_value("CCn1ncc(C(=O)N[C@H]2N=C(c3ccccc3)c3ccccc3NC2=O)c1-c1ccc(NC(C)C)nc1F")
45.3

====

Documented half-life across a set of molecules
- Experiment description: Liver hepatocyte stability, dog
- Type: in vitro ADME
- Measurement conditions: dog hepatocytes, 3 μM compound, 60 min, >80% remaining at 60 min denoted >186, read-out: Liver Hepatocyte Stability: t1/2 (min)
Measurement kind: half-life (min)

>>> result_value("CCn1cc(C(=O)N[C@H]2N=C(c3ccccc3)c3cccc(F)c3NC2=O)c(-c2ccc(NC3CC3)nc2F)n1")
160
>>> result_value("CCn1ncc(C(=O)N[C@H]2N=C(c3ccccc3)c3cccc(F)c3NC2=O)c1-c1ccc(NC2CC2)nc1F")
48.2
>>> result_value("CCNc1ccc(-c2c(C(=O)N[C@H]3N=C(c4ccccc4)c4ccccc4NC3=O)cnn2C2CCOCC2)c(F)n1")
100
>>> result_value("CC(C)Nc1ccc(-c2c(C(=O)N[C@H]3N=C(c4ccccc4)c4cccc(F)c4NC3=O)cnn2C2CCOCC2)c(F)n1")
90.7
>>> result_value("CC(C)Nc1ccc(-c2c(C(=O)N[C@H]3N=C(c4ccccc4)c4ccccc4NC3=O)cnn2C2CCOCC2)c(F)n1")
127
